Test system: Brassica rapa subsp. pekinensis
run_description: Phytotoxicity against Brassica rapa subsp. pekinensis (Chinese cabbage) cv. Kinshu seedling assessed as root growth inhibition at 1 x 10' -6 to 1 x 10' -3 M
Assay type: organism-based
measurement_conditions: in vivo
endpoint_name: Activity

Worked cases, Activity given:
compound	val
C[C@@H](O)[C@@H](C(=O)O)N1C(=O)[C@H]2CCCC[C@H]2C1=O	Non-toxic
C/C=C(/C(=O)O)N1C(=O)[C@H]2CCCC[C@@H]2C1=O (relative stereo)	Non-toxic
C[C@@H](O)[C@@H](C(=O)O)N1C(=O)[C@H]2CC=CC[C@H]2C1=O	Non-toxic
C[C@@H](O)[C@@H](C(=O)O)N1C(=O)c2ccccc2C1=O	Non-toxic
C[C@@H](O)[C@@H](C(=O)O)N1C(=O)c2cc(Cl)c(Cl)cc2C1=O	Non-toxic
C[C@@H](O)[C@@H](C(=O)O)N1C(=O)[C@H]2CCCC[C@@H]2C1=O	Non-toxic
C[C@@H](O)[C@@H](C(=O)O)N1C(=O)C2=C(CCCC2)C1=O	Non-toxic
C/C=C(/C(=O)O)N1C(=O)c2cc(Cl)c(Cl)cc2C1=O	Non-toxic

# evaluate next
Request: Missing value: Activity, Brassica rapa subsp. pekinensis, entry "C/C=C(/C(=O)O)N1C(=O)[C@H]2CCCC[C@H]2C1=O" . Fill in?
Result: Non-toxic

----------
Tested on: Oryza sativa
run_description: Growth promoting activity in Oryza sativa cv. Koshihikari (rice) seedling root at 1 x 10' -4 M relative to control
Assay type: functional
endpoint_name: fold change (FC)

Worked cases, fold change (FC) given:
C[C@@H](O)[C@@H](C(=O)O)N1C(=O)[C@H]2CC=CC[C@H]2C1=O 1.6
C[C@@H](O)[C@@H](C(=O)O)N1C(=O)C2=C(CCCC2)C1=O 1.6

Request: May I ask what fold change (FC) has been recorded for "C/C=C(/C(=O)O)N1C(=O)[C@H]2CCCC[C@H]2C1=O" ?
Result: 2.1

----------
Test system: Oryza sativa
run_description: Phytotoxicity against Oryza sativa cv. Koshihikari (rice) seedling assessed as root necrosis at 1 x 10' -3 M
Assay type: organism-based
measurement_conditions: in vivo, 1000 µM
endpoint_name: Activity

compound	endpoint_name	val
C[C@@H](O)[C@@H](C(=O)O)N1C(=O)C2=C(CCCC2)C1=O	Activity	Toxic
C/C=C(/C(=O)O)N1C(=O)[C@H]2CC=CC[C@H]2C1=O	Activity	Non-toxic
C[C@@H](O)[C@@H](C(=O)O)N1C(=O)[C@H]2CCCC[C@@H]2C1=O	Activity	Non-toxic
C/C=C(/C(=O)O)N1C(=O)c2cc(Cl)c(Cl)cc2C1=O [4,5-Cl2P-BTEA]	Activity	Non-toxic
C[C@@H](O)[C@@H](C(=O)O)N1C(=O)[C@H]2CC=CC[C@H]2C1=O	Activity	Non-toxic

Request: May I ask what Activity has been recorded for "C/C=C(/C(=O)O)N1C(=O)[C@H]2CCCC[C@H]2C1=O" ?
Result: Non-toxic

Request: May I ask what Activity has been recorded for "C/C=C(/C(=O)O)N1C(=O)C2=C(CCCC2)C1=O" ?
Result: Toxic

Request: May I ask what Activity has been recorded for "C[C@@H](O)[C@@H](C(=O)O)N1C(=O)[C@H]2CCCC[C@H]2C1=O" ?
Result: Non-toxic

Request: May I ask what Activity has been recorded for C/C=C(/C(=O)O)N1C(=O)[C@H]2CCCC[C@@H]2C1=O (relative stereo) ?
Result: Non-toxic

Request: May I ask what Activity has been recorded for C[C@@H](O)[C@@H](C(=O)O)N1C(=O)c2cc(Cl)c(Cl)cc2C1=O [N-(4,5-DICHLOROPHTHALOYL)-L-THREONINE] ?
Result: Non-toxic

----------
System: Lactuca sativa
run_description: Phytotoxicity against Lactuca sativa cv. Gokuwase-CISCO (lettuce) seedling assessed as hypocotyl growth inhibition at 1 x 10' -3 M
Type: organism-based
measurement_conditions: in vivo, 1000 µM
endpoint_name: Activity

Worked cases, Activity given:
compound	val
C/C=C(/C(=O)O)N1C(=O)C2=C(CCCC2)C1=O	Toxic
C/C=C(/C(=O)O)N1C(=O)[C@H]2CC=CC[C@H]2C1=O	Toxic
C/C=C(/C(=O)O)N1C(=O)[C@H]2CCCC[C@@H]2C1=O (relative stereo)	Toxic
C[C@@H](O)[C@@H](C(=O)O)N1C(=O)[C@H]2CCCC[C@@H]2C1=O	Toxic

Request: May I ask what Activity has been recorded for "C/C=C(/C(=O)O)N1C(=O)c2ccccc2C1=O" ?
Result: Toxic

Request: May I ask what Activity has been recorded for "C[C@@H](O)[C@@H](C(=O)O)N1C(=O)c2ccccc2C1=O" ?
Result: Toxic

Request: May I ask what Activity has been recorded for "C[C@@H](O)[C@@H](C(=O)O)N1C(=O)C2=C(CCCC2)C1=O" ?
Result: Toxic

----------
Tested on: Lactuca sativa
run_description: Growth promoting activity in Lactuca sativa cv. Gokuwase-CISCO (lettuce) seedling root at 1 x 10' -6 to 1 x 10' -3 M
Format: functional, organism-based
The source made the active and inactive calls. The rule behind the calls is not given here.

compound	Activity
C/C=C(/C(=O)O)N1C(=O)[C@H]2CCCC[C@@H]2C1=O (relative stereo)	inactive
C[C@@H](O)[C@@H](C(=O)O)N1C(=O)[C@H]2CCCC[C@H]2C1=O	inactive
C/C=C(/C(=O)O)N1C(=O)C2=C(CCCC2)C1=O	inactive

----------
Property: fold change (FC); scope: individual compounds
Tested on: Oryza sativa
run_description: Growth promoting activity in Oryza sativa cv. Koshihikari (rice) seedling root at 1 x 10' -4 M relative to control
Assay type: functional
Answer with a bare number; do not write a unit.

Worked cases, fold change (FC) given:
compound	fold change (FC)
C[C@@H](O)[C@@H](C(=O)O)N1C(=O)[C@H]2CCCC[C@H]2C1=O	1.6
C[C@@H](O)[C@@H](C(=O)O)N1C(=O)c2ccccc2C1=O [N PHTHALOYL-L-THREONINE]	1.6
C/C=C(/C(=O)O)N1C(=O)c2ccccc2C1=O	2.1
C[C@@H](O)[C@@H](C(=O)O)N1C(=O)[C@H]2CCCC[C@@H]2C1=O	1.6
C[C@@H](O)[C@@H](C(=O)O)N1C(=O)c2cc(Cl)c(Cl)cc2C1=O [N-(4,5-DICHLOROPHTHALOYL)-L-THREONINE]	1.6
C/C=C(/C(=O)O)N1C(=O)[C@H]2CCCC[C@@H]2C1=O (relative stereo)	2.1
C/C=C(/C(=O)O)N1C(=O)c2cc(Cl)c(Cl)cc2C1=O [4,5-Cl2P-BTEA]	2.1
C/C=C(/C(=O)O)N1C(=O)[C@H]2CC=CC[C@H]2C1=O	2.1

# evaluate next
Request: May I ask what fold change (FC) has been recorded for "C/C=C(/C(=O)O)N1C(=O)C2=C(CCCC2)C1=O" ?
Result: 2.1

Where do these numbers come from? They come from ChEMBL document CHEMBL3046650.
